Consider the following compounds; for each one, report its pKi.
- target: OXA-24/40 (Acinetobacter baumannii)
- test-summary: biochemical
pKi: −log10 of the molar value.

Please tell me: pKi of N#C[C@@H]1CC[C@@H]2CN1C(=O)N2OS(=O)(=O)[O-].[Na+] [Compound 3] , system OXA-24/40 (Acinetobacter baumannii)?
5.30

Try this compound too: O=C(NNC(=O)[C@@H]1CC[C@@H]2CN1C(=O)N2OS(=O)(=O)O)[C@@H]1CCCNC1 [Compound 2]
< 4.00

Try this compound too: O=C(NNC(=O)[C@@H]1CC[C@@H]2CN1C(=O)N2OS(=O)(=O)O)[C@@H]1CCNC1 [Compound 1]
< 4.00

Try this compound too: O.O=C(NC1CCNCC1)[C@@H]1CC[C@@H]2CN1C(=O)N2OS(=O)(=O)O [relebactam]
< 4.00

###

Record type: pKi measurement. Applies to: OXA-23 (Acinetobacter baumannii, UniProt Q9L4P2)
pKi: −log10 of the molar value.

Find the recorded pKi belonging to O=C(NNC(=O)[C@@H]1CC[C@@H]2CN1C(=O)N2OS(=O)(=O)O)[C@@H]1CCCNC1 [Compound 2] and report it.
< 4.00

Try this compound too: N#C[C@@H]1CC[C@@H]2CN1C(=O)N2OS(=O)(=O)[O-].[Na+] [Compound 3]
5.10

Try this compound too: O.O=C(NC1CCNCC1)[C@@H]1CC[C@@H]2CN1C(=O)N2OS(=O)(=O)O [relebactam]
< 4.00

Try this compound too: O=C(NNC(=O)[C@@H]1CC[C@@H]2CN1C(=O)N2OS(=O)(=O)O)[C@@H]1CCNC1 [Compound 1]
< 4.00

###

- target: OXA-23 (Acinetobacter baumannii, UniProt Q9L4P2)
- Sequence (Q9L4P2 18-273): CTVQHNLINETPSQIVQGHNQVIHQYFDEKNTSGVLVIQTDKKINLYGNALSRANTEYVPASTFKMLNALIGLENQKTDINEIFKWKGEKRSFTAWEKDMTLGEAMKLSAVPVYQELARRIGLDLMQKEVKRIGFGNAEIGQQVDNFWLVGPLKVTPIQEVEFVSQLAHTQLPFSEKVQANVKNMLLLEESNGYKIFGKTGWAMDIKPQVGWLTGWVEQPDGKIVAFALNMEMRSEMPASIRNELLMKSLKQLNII
result-type: pKd
Keep in mind that pKd stands for -log10 of concentration in molar terms.

Find the recorded pKd belonging to N#C[C@@H]1CC[C@@H]2CN1C(=O)N2OS(=O)(=O)[O-].[Na+] [Compound 3] and report it.
7.54
